system: PC-3; assay: Antiproliferative activity against human PC3 cells after 72 hrs by methylene blue staining based assay; type: functional, cell-based; conditions: PC-3, 72 h
measured_attribute: IC50 (µM)
Could you give me the number in µM? Just the number is fine.

Task item: Recorded IC50 of C=C1C[C@H]2C/C=C/C(=O)C/C(C)=C\C=C\C(=O)OC(C=O)C/C(C)=C/[C@@H](C1)O2 (stereo partly drawn) , please.
Reply: 0.75

Task item: What value of IC50 has been reported for the following compound? C/C1=C/C=C/C(=O)O[C@H](CO)C/C(C)=C/COCC/C=C/C(=O)C1
Reply: 3.05

Now examine the next entry.
Task item: // IC50 lookup, key: C/C1=C/C=C/C(=O)O[C@H](C=O)C/C(C)=C/COCC/C=C/C(=O)C1
Reply: 4.02
